Data provenance: the supplement of paper PMC6555819

tested on: LXRa homodimer (NR concentration 270 nM); assay: PBM binding z-score (relative to random genomic background probes); higher = stronger binding; sequences stand for … in GC…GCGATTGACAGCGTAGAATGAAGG
observation-type: PBM binding z-score
Output: the number by itself.

Example results:
biosequence | observation-type | observed
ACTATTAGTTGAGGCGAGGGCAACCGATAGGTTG | PBM binding z-score | 0.0582
CTATCAAGGTGAACAAGGTCGTTGATTACTATTC | PBM binding z-score | -0.163
CCTAGCAGGGCAATCTGGGTCACTCAAGGCTTGA | PBM binding z-score | -0.398
ATCGAAAGGTCGACGAGGTAAGTATACACCGTTT | PBM binding z-score | -0.055
TCATATAGGTATACAGGTGAAAGTCCGTAAGTTA | PBM binding z-score | 0.26

input: Name the recorded PBM binding z-score of the sequence listed here: TCATTTAGGTAAAGGTGAAAGTCGAACGATATGA
output: -0.167

input: Name the recorded PBM binding z-score of the sequence listed here: CGAACTAGGTCAAGGATAGTGAATCTCCGCACGC
output: 0.0332

----------
test system: PPARg homodimer (NR concentration 180 nM); assay: PBM binding z-score (relative to random genomic background probes); higher = stronger binding; sequences stand for … in GC…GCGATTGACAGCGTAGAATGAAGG
observation-type: PBM binding z-score
Output: the number by itself.

Example results:
biosequence | PBM binding z-score
CCTTACGGATCACGAGGTTATAGCACGACGAGCG | 1.02
TGAATGAGGTTAAAGATCACGGAACGTGGCGTCG | 0.7
GTACCAAGGTGAATAGGTCGTCGATGAGTAGGCG | 0.976

Let us move to another entry and its PBM binding z-score.
input: Name the recorded PBM binding z-score of the sequence listed here: TGTATGAGGTTATAAGATCAGGGAACGTTGCAAA
output: 0.994

----------
test system: PPARg homodimer (NR concentration 180 nM); assay: PBM binding z-score (relative to random genomic background probes); higher = stronger binding; sequences stand for … in GC…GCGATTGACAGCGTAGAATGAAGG
# PBM binding z-score per entry
Output: the number by itself.

Example results:
biosequence | PBM binding z-score
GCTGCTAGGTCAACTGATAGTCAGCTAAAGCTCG | 0.644
ACTATTAGTTGACTTAGGGTAACCGATACGACGC | 0.663

input: Name the recorded PBM binding z-score of the sequence listed here: TCTAGTTGGTCAAAGGTCAGACACTCGAAATGCG
output: 4.36

input: Name the recorded PBM binding z-score of the sequence listed here: TTAGCAAGGTGAAGGTCGTTGATCCCTCTGTAGA
output: 0.358

input: Name the recorded PBM binding z-score of the sequence listed here: ATATGTAGGTTACATCCGGGTCAGTCAGGCTATG
output: 1.39

----------
test system: PPARg DBDmut IVT, anti-PPARg (DBD mutation: PPARg1 K132A/R137A, NR concentration 270 nM); assay: PBM binding z-score (relative to random genomic background probes); higher = stronger binding; sequences stand for … in GC…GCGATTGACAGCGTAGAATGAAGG
# PBM binding z-score per entry
Output: the number by itself.

biosequence | target-system | PBM binding z-score
ACTAGTTGGTCAGCTGAGGTGACACACAATTCGG | PPARg DBDmut IVT, anti-PPARg (DBD mutation: PPARg1 K132A/R137A, NR concentration 270 nM) | 0.422
CCTTCTGGGCCACGAAAGGTCATTGATTCAGTGA | PPARg DBDmut IVT, anti-PPARg (DBD mutation: PPARg1 K132A/R137A, NR concentration 270 nM) | 2.08
GCTGCTAGGTCAGGTGGGTCAGCTAACGGGTACG | PPARg DBDmut IVT, anti-PPARg (DBD mutation: PPARg1 K132A/R137A, NR concentration 270 nM) | -0.61
TCACCAAGGTGAAGGTCGTTGATCCCTCTGTAGA | PPARg DBDmut IVT, anti-PPARg (DBD mutation: PPARg1 K132A/R137A, NR concentration 270 nM) | 0.105

Let us move to another entry and its PBM binding z-score.
input: Name the recorded PBM binding z-score of the sequence listed here: AGAACGAGGGCAATGCGTTGATAGCACGGGTGGC
output: 0.0782

----------
# PBM binding z-score per entry
system: LXRb:RXRa (NR concentration 270 nM, RXRa partner concentration 90 nM); assay: PBM binding z-score (relative to random genomic background probes); higher = stronger binding; sequences stand for … in GC…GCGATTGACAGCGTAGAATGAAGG
Output: the number by itself.

Example results:
biosequence | PBM binding z-score
CCTCGGAGGACAGCAGGTCAGAGCTGTCCGCTTT | -0.0868
CAAACTAGGTCACCGGAAGGTCAAAGTCCGCATG | 5.46
TTACCAAGGTGAAGGTCATTGATCCCTCTGTAGA | 3.7

input: Quote PBM binding z-score with test system LXRb:RXRa (NR concentration 270 nM, RXRa partner concentration 90 nM) for AGAACGAGGGCAATGAATTGATAGCACGGGTGGC
output: 0.0164

input: Quote PBM binding z-score with test system LXRb:RXRa (NR concentration 270 nM, RXRa partner concentration 90 nM) for CAAACTAGGTCAAGGGTCAAAGTCGAGCCAACCA
output: 5.71

input: Quote PBM binding z-score with test system LXRb:RXRa (NR concentration 270 nM, RXRa partner concentration 90 nM) for CGAACGAGAGCATGAGTTGATAGCAAATGCCGAT
output: -0.828

input: Quote PBM binding z-score with test system LXRb:RXRa (NR concentration 270 nM, RXRa partner concentration 90 nM) for CGAACGAGGGCATGTGTTGATAGCAAATGCCGAT
output: 0.11

input: Quote PBM binding z-score with test system LXRb:RXRa (NR concentration 270 nM, RXRa partner concentration 90 nM) for ATCTCTAGGTAACCAAGTTCAGTGAGTGCCGAAC
output: 0.855

input: Quote PBM binding z-score with test system LXRb:RXRa (NR concentration 270 nM, RXRa partner concentration 90 nM) for CAAACTAGGTCAAGGTCAAAGTTGGTTTGTGCCA
output: 4.77

input: Quote PBM binding z-score with test system LXRb:RXRa (NR concentration 270 nM, RXRa partner concentration 90 nM) for CCTACTGGGCCAAGGTCAATGATCAGTCAAAGCA
output: 2.32

input: Quote PBM binding z-score with test system LXRb:RXRa (NR concentration 270 nM, RXRa partner concentration 90 nM) for ACTAGCAGGCCAAGTTTGGGTCACGCAAACAAAG
output: 1.33

input: Quote PBM binding z-score with test system LXRb:RXRa (NR concentration 270 nM, RXRa partner concentration 90 nM) for ACAGACAGGTGTGTGAAGGTAACTCAGCTGGACG
output: -0.618

----------
system: VDR:RXRa (NR concentration 270 nM, RXRa partner concentration 90 nM); assay: PBM binding z-score (relative to random genomic background probes); higher = stronger binding; sequences stand for … in GC…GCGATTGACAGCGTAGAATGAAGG
observation-type: PBM binding z-score

biosequence | target-system | PBM binding z-score
GCTATTAGTTGAAAGGGCAACCGAATGATTCTCG | VDR:RXRa (NR concentration 270 nM, RXRa partner concentration 90 nM) | 0.531
TCTAGCAGGCCAGAGGGCCACTCAAGAGGTACGG | VDR:RXRa (NR concentration 270 nM, RXRa partner concentration 90 nM) | -0.505
AGTCAAAGTTCACTAGGTAACGTGAGATTCAGCT | VDR:RXRa (NR concentration 270 nM, RXRa partner concentration 90 nM) | 3.88

input: Name the recorded PBM binding z-score of the sequence listed here: CCTAGCAGGCCGGGGTCACTCAAGCATTTCGCTT
output: 4.94

input: Name the recorded PBM binding z-score of the sequence listed here: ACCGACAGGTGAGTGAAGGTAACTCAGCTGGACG
output: -0.484

input: Name the recorded PBM binding z-score of the sequence listed here: TTATATAGGTAAAGGTGAAAGTCGAACGATATGA
output: 1.07

input: Name the recorded PBM binding z-score of the sequence listed here: TCTCGGAGGACACGAAAGGTCAGAGCCCGACATC
output: 3.26

input: Name the recorded PBM binding z-score of the sequence listed here: AATACAGGGTCTTCGTAGGCCAGAGTACGCACAG
output: 0.0684

input: Name the recorded PBM binding z-score of the sequence listed here: ACTAGCAGGCCGAGTTTGGGTCACTCAAACAAAG
output: 0.459

input: Name the recorded PBM binding z-score of the sequence listed here: CCGACTGGGGCAAGGTGACCATAACGCACAGCCA
output: -0.586

input: Name the recorded PBM binding z-score of the sequence listed here: TCGAGTAGGTTGGGGGCATTCAGAATGGCGTCGA
output: 2.65

input: Name the recorded PBM binding z-score of the sequence listed here: GATGCAGGGTCAAGGCCAGAGTACGCGTATTGAT
output: 4.21

input: Name the recorded PBM binding z-score of the sequence listed here: CCTTACGGATCAAGGTTATAGCACGGGTGGTACG
output: 0.474

input: Name the recorded PBM binding z-score of the sequence listed here: TCGAGTAGGTGACCAATGGGGCATTCAGCTTTCT
output: -0.154

input: Name the recorded PBM binding z-score of the sequence listed here: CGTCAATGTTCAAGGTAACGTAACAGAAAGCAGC
output: 0.0627

input: Name the recorded PBM binding z-score of the sequence listed here: ATATGTAGGTTACATCCGGGTGATTCAGGCTATG
output: 0.753

input: Name the recorded PBM binding z-score of the sequence listed here: TCTAGGAGGCCAGAGGGTCACTCAAGAGGTACGG
output: 1.68

input: Name the recorded PBM binding z-score of the sequence listed here: GATACAGGTTCAAGGCCAGAGTACGCGTATTGAT
output: 3.41

input: Name the recorded PBM binding z-score of the sequence listed here: CCTCTGAGGACAACAGGAGGTCAGAGCTGCCAGA
output: 2.17
